// reported viability, T/C per item
Tested on: 138582-337-R-J1-PDC complex spheroid viability
Assay: Anticancer human tumor 138582-337-R-J1-PDC patient-derived Merkel cell tumor cell line growth inhibition
Conditions: second compound 0.316 µM; first compound 0.000316 µM; stronger effect = lower value
MEASUREMENT_TYPE: viability, T/C (%)

> print(dat)
                                   molecule  value.observed
1  Cn1ncnc1C1c2n[nH]c(=O)c3cc(F)cc(c23)NC1c1ccc(F)cc1 (centres undefined) + NC1CC1c1ccc(-c2cccc(O)c2)cc1            72.5
2  Cn1ncnc1C1c2n[nH]c(=O)c3cc(F)cc(c23)NC1c1ccc(F)cc1 (centres undefined) + NC1CCC(NC2CC2c2ccccc2)CC1            84.7
3  CC(C)CC(NC(=O)C(Cc1ccccc1)NC(=O)c1cnccn1)B(O)O (centres undefined) + NC1CC1c1ccc(-c2cccc(O)c2)cc1              77
4  CC(C)CC(NC(=O)CNC(=O)c1cc(Cl)ccc1Cl)B1OC(=O)CC(CC(=O)O)(C(=O)O)O1 (centres undefined) + NC1CC1c1ccc(-c2cccc(O)c2)cc1            80.7

====

Tested on: 138582-337-R-J1-PDC complex spheroid viability
Experiment: Anticancer human tumor 138582-337-R-J1-PDC cell line growth inhibition;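 further: spheroids exposed to agents for 7 days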;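 on viability, T/C: 100% = DMSO vehicle control viability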
Settings: second compound 3.16 µM; first compound 0.0949 µM; stronger effect = lower value
Entries and their viability, T/C

COMPOUND	UNIT_STRING	viability, T/C
O=C(C=Cc1cccc(S(=O)(=O)Nc2ccccc2)c1)NO + NC1CCC(NC2CC2c2ccccc2)CC1	%	79.5
Nc1ccn(C2OC(CO)C(O)C2(F)F)c(=O)n1 (centres undefined) + NC1CC1c1ccc(-c2cccc(O)c2)cc1	%	67.6
CCN(c1cc(-c2ccc(CN3CCOCC3)cc2)cc(C(=O)NCc2c(C)cc(C)[nH]c2=O)c1C)C1CCOCC1 + NC1CCC(NC2CC2c2ccccc2)CC1	%	90.6
Nc1ncn(C2CC(O)C(CO)S2)c(=O)n1 (centres undefined) + NC1CC1c1ccc(-c2cccc(O)c2)cc1	%	77.8
Nc1ccccc1NC(=O)c1ccc(CNC(=O)OCc2cccnc2)cc1 + NC1CCC(NC2CC2c2ccccc2)CC1	%	74.5
COc1cc(C2c3cc4c(cc3C(OC3OC5COC(C)OC5C(O)C3O)C3COC(=O)C23)OCO4)cc(OC)c1O (centres undefined) + NC1CC1c1ccc(-c2cccc(O)c2)cc1	%	65.9
CCc1c2c(nc3ccc(O)cc13)-c1cc3c(c(=O)n1C2)COC(=O)[C@]3(O)CC + NC1CC1c1ccc(-c2cccc(O)c2)cc1	%	0.14
NS(=O)(=O)OCC1CC(n2ccc3c(NC4CCc5ccccc54)ncnc32)CC1O (centres undefined) + NC1CCC(NC2CC2c2ccccc2)CC1	%	90.1
Nc1ncn(C2CC(O)C(CO)S2)c(=O)n1 (centres undefined) + NC1CCC(NC2CC2c2ccccc2)CC1	%	93.5

====

System: 138582-337-R-J1-PDC complex spheroid viability
Test: Anticancer human tumor 138582-337-R-J1-PDC cell line growth inhibition;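 further: spheroids exposed to agents for 7 days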
Details: curve of first compound; second compound 3.16 µM
Description: Multicellular complex tumor spheroid response to LSD1 Inhibitor Iadademstat in combination with a variety of drugs and investigational agents in selected tumor cell lines The current study was undertaken to assess response to LSD1 inhibitors in combination with standard-of-care drugs and investigational agents in solid tumor complex spheroid models as well as in the K-562 leukemia. […] Compounds. […] If the clinical Cmax for an agent had not been determined, the highest concentration tested was 10 microM. […]
Listing of recorded IC50 by entry.

COMPOUND	UNIT_STRING	LT_GT_EQ	IC50
CCN(c1cc(-c2ccc(CN3CCOCC3)cc2)cc(C(=O)NCc2c(C)cc(C)[nH]c2=O)c1C)C1CCOCC1 + NC1CCC(NC2CC2c2ccccc2)CC1	µM	>	3
CC(C)c1c(-c2ccccc2)nc2c(C#N)c[nH]n2c1=O + NC1CCC(NC2CC2c2ccccc2)CC1	µM	>	10
CC(C)CC(NC(=O)C(Cc1ccccc1)NC(=O)c1cnccn1)B(O)O (centres undefined) + NC1CCC(NC2CC2c2ccccc2)CC1	µM	=	0.000951
CC1(C)CCC(CN2CCN(c3ccc(C(=O)NS(=O)(=O)c4ccc(NCC5CCOCC5)c([N+](=O)[O-])c4)c(Oc4cnc5[nH]ccc5c4)c3)CC2)=C(c2ccc(Cl)cc2)C1 + NC1CCC(NC2CC2c2ccccc2)CC1	µM	>	10
NS(=O)(=O)OCC1CC(n2ccc3c(NC4CCc5ccccc54)ncnc32)CC1O (centres undefined) + NC1CC1c1ccc(-c2cccc(O)c2)cc1	µM	=	0.1
Cn1ncnc1C1c2n[nH]c(=O)c3cc(F)cc(c23)NC1c1ccc(F)cc1 (centres undefined) + NC1CCC(NC2CC2c2ccccc2)CC1	µM	>	0.1
CC(C)CC(NC(=O)CNC(=O)c1cc(Cl)ccc1Cl)B1OC(=O)CC(CC(=O)O)(C(=O)O)O1 (centres undefined) + NC1CC1c1ccc(-c2cccc(O)c2)cc1	µM	=	0.0101
Nc1ccn(C2OC(CO)C(O)C2(F)F)c(=O)n1 (centres undefined) + NC1CCC(NC2CC2c2ccccc2)CC1	µM	>	0.3
O=C(c1cc(Cc2n[nH]c(=O)c3ccccc23)ccc1F)N1CCN(C(=O)C2CC2)CC1 + NC1CCC(NC2CC2c2ccccc2)CC1	µM	>	10
COc1ccc([C@@H](O)c2cc(-c3ncnc4cc(N5CCOCC5)ccc34)c(F)cc2Cl)nn1 + NC1CC1c1ccc(-c2cccc(O)c2)cc1	µM	=	2.2
Nc1ccccc1NC(=O)c1ccc(CNC(=O)OCc2cccnc2)cc1 + NC1CC1c1ccc(-c2cccc(O)c2)cc1	µM	=	0.31
NS(=O)(=O)OCC1CC(n2ccc3c(NC4CCc5ccccc54)ncnc32)CC1O (centres undefined) + NC1CCC(NC2CC2c2ccccc2)CC1	µM	=	0.471
Nc1ncn(C2CC(O)C(CO)O2)c(=O)n1 (centres undefined) + NC1CC1c1ccc(-c2cccc(O)c2)cc1	µM	>	1
COc1ccc([C@@H](O)c2cc(-c3ncnc4cc(N5CCOCC5)ccc34)c(F)cc2Cl)nn1 + NC1CCC(NC2CC2c2ccccc2)CC1	µM	=	1.8

====

System: 138582-337-R-J1-PDC complex spheroid viability
Test: Anticancer human tumor 138582-337-R-J1-PDC cell line growth inhibition; active means viability on the fitted dose curve at most 10% of control; inactive means the rest;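 further: spheroids exposed to agents for 7 days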
Settings: second compound 0.1 µM; first compound 3 µM
Description: Multicellular complex tumor spheroid response to LSD1 Inhibitor Iadademstat in combination with a variety of drugs and investigational agents in selected tumor cell lines The current study was undertaken to assess response to LSD1 inhibitors in combination with standard-of-care drugs and investigational agents in solid tumor complex spheroid models as well as in the K-562 leukemia. […] Compounds. […] If the clinical Cmax for an agent had not been determined, the highest concentration tested was 10 microM. […]
Outcome codes: active, inactive

COMPOUND	CATEGORY_LABEL
NS(=O)(=O)OCC1CC(n2ccc3c(NC4CCc5ccccc54)ncnc32)CC1O (stereo not given) + NC1CCC(NC2CC2c2ccccc2)CC1	inactive
O=C(C=Cc1cccc(S(=O)(=O)Nc2ccccc2)c1)NO + NC1CCC(NC2CC2c2ccccc2)CC1	active
COc1cc(C2c3cc4c(cc3C(OC3OC5COC(C)OC5C(O)C3O)C3COC(=O)C23)OCO4)cc(OC)c1O (stereo not given) + NC1CCC(NC2CC2c2ccccc2)CC1	inactive
COc1cc(C2c3cc4c(cc3C(OC3OC5COC(C)OC5C(O)C3O)C3COC(=O)C23)OCO4)cc(OC)c1O (stereo not given) + NC1CC1c1ccc(-c2cccc(O)c2)cc1	inactive
CCN(c1cc(-c2ccc(CN3CCOCC3)cc2)cc(C(=O)NCc2c(C)cc(C)[nH]c2=O)c1C)C1CCOCC1 + NC1CC1c1ccc(-c2cccc(O)c2)cc1	inactive
CCN(c1cc(-c2ccc(CN3CCOCC3)cc2)cc(C(=O)NCc2c(C)cc(C)[nH]c2=O)c1C)C1CCOCC1 + NC1CCC(NC2CC2c2ccccc2)CC1	inactive
Nc1ccccc1NC(=O)c1ccc(CNC(=O)OCc2cccnc2)cc1 + NC1CC1c1ccc(-c2cccc(O)c2)cc1	active
NS(=O)(=O)OCC1CC(n2ccc3c(NC4CCc5ccccc54)ncnc32)CC1O (stereo not given) + NC1CC1c1ccc(-c2cccc(O)c2)cc1	inactive
O=C(C=Cc1cccc(S(=O)(=O)Nc2ccccc2)c1)NO + NC1CC1c1ccc(-c2cccc(O)c2)cc1	inactive
Nc1ccccc1NC(=O)c1ccc(CNC(=O)OCc2cccnc2)cc1 + NC1CCC(NC2CC2c2ccccc2)CC1	active

====

Test system: 138582-337-R-J1-PDC complex spheroid viability
Test: Anticancer human tumor 138582-337-R-J1-PDC cell line growth inhibition;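 further: spheroids exposed to agents for 7 days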;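 on viability, T/C: 100% = DMSO vehicle control viability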
Details: second compound 0.1 µM; first compound 0.03 µM; stronger effect = lower value
MEASUREMENT_TYPE: viability, T/C

> print(dat)
                                   molecule  measurement.type  value.observed
1  NS(=O)(=O)OCC1CC(n2ccc3c(NC4CCc5ccccc54)ncnc32)CC1O (centres undefined) + NC1CC1c1ccc(-c2cccc(O)c2)cc1    viability, T/C           63.1%
2  O=C(C=Cc1cccc(S(=O)(=O)Nc2ccccc2)c1)NO + NC1CC1c1ccc(-c2cccc(O)c2)cc1    viability, T/C           64.1%
3  Nc1ncn(C2CC(O)C(CO)S2)c(=O)n1 (centres undefined) + NC1CCC(NC2CC2c2ccccc2)CC1    viability, T/C            102%
4  Nc1ccn(C2OC(CO)C(O)C2(F)F)c(=O)n1 (centres undefined) + NC1CCC(NC2CC2c2ccccc2)CC1    viability, T/C           95.3%

From: PubChem BioAssay AID1918931
